System: Pseudomonas aeruginosa ATCC 27853
protocolSummary: ≥ marks a high value that may be exact or a test limit, other limits are often not marked, values filed in µg/mL are converted to µM
Documented MIC across a set of molecules
measuredEndpoint: MIC

>>> testresult("CC[C@H](C)[C@@H]1NC(=O)CNC(=O)[C@H](C)NC(=O)[C@H](Cc2ccc(O)cc2)NC(=O)[C@@H]2CSSC[C@H](NC1=O)C(=O)N[C@@H](Cc1ccc(O)cc1)C(=O)N[C@@H](CCCN=C(N)N)C(=O)N[C@@H](CCCN=C(N)N)C(=O)N[C@H](C(=O)N[C@@H](CCCN=C(N)N)C(=O)O)CSSC[C@H](NC(=O)[C@H](Cc1c[nH]c3ccccc13)NC(=O)[C@@H](N)CCCCN)C(=O)N[C@@H](Cc1ccccc1)C(=O)N[C@@H](CCCN=C(N)N)C(=O)N[C@@H](CCCN=C(N)N)C(=O)N2")
"> 7.14 µM"
>>> testresult("CC[C@H](C)[C@H](NC(=O)[C@H](CCC(N)=O)NC(=O)[C@@H](N)CCCN=C(N)N)C(=O)N[C@@H](CCCN=C(N)N)C(=O)N[C@@H](Cc1c[nH]c2ccccc12)C(=O)N[C@@H](CCC(N)=O)C(=O)N[C@@H](CCCN=C(N)N)C(N)=O")
"> 50 µM"
>>> testresult("NCC(=O)N[C@@H](CCCN=C(N)N)C(=O)N[C@@H](CCCN=C(N)N)C(=O)N[C@@H](Cc1c[nH]c2ccccc12)C(=O)N[C@@H](Cc1c[nH]c2ccccc12)C(=O)N[C@@H](Cc1c[nH]c2ccccc12)C(=O)N[C@@H](CCCN=C(N)N)C(=O)N[C@@H](CCCN=C(N)N)C(=O)NCC(N)=O")
"> 128 µM"
